# experimentalSystem: T1, GFP-9S library array, motif 4 ND N98A (synthetic construct, N98A)
# T1 chain: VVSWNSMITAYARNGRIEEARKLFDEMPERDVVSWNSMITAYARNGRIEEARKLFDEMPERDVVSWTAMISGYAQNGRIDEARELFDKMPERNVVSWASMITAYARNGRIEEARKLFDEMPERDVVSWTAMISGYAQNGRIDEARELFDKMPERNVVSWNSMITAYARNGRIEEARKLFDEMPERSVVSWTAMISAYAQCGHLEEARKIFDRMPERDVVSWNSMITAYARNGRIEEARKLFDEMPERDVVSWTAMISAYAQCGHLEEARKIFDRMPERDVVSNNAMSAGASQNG
# testDetails: high-throughput RNA pulldown from lysate on Ni-NTA beads; HRP: 50 mM Tris pH 8, 150 mM NaCl, 1 mM beta-mercaptoethanol, 50 ug/ml BSA, 3 ug/ml yeast RNA, 0.5% heparin; ITC and FP: Tris pH 8, 200 mM KCl, 5% glycerol; MST: 50 mM Tris pH 8, 200 mM NaCl, 1 mM DTT, BSA, heparin, 0.05% Tween 20
# statedConditions: tags: N-terminal His-eGFP; label: 5' IRDye 800CW
// reported Kd per item
measuredEndpoint: Kd

>>> reportedvalue("AUUAAACGUGA (ssRNA) [IR-rpoA-A]")
"223 nM"
>>> reportedvalue("AUUAUACGUGA (ssRNA) [IR-rpoA-U]")
"50.8 nM"
